pKi: −log10 of the molar value.
Below are pKi values measured for PKC alpha kinase (Homo sapiens).
observed_property: pKi

[[record]]
compound = "CC(C)CC1(C)CN(c2ccc(C(F)(F)F)c(-c3n[nH]c4ncccc34)n2)CCC1N (centres unmarked)"
assay_result = "> 6.30"

[[record]]
compound = "CC(C)C[C@H]1CN(c2ccc(F)c(-c3n[nH]c4ncccc34)n2)CC[C@@H]1O"
assay_result = "< 5.90"

[[record]]
compound = "N#CC1(c2cccc(-c3n[nH]c4ncccc34)n2)CCNCC1"
assay_result = "> 6.30"

[[record]]
compound = "CC(C)C(C)(O)C1CN(c2cccc(-c3n[nH]c4ncccc34)n2)CCN1 (centres unmarked)"
assay_result = "> 5.55"

[[record]]
compound = "CC(C)C[C@@H]1CN(c2ccc(F)c(-c3n[nH]c4ncccc34)n2)CCN1"
assay_result = "< 5.90"

[[record]]
compound = "CO[C@H]1CN(c2ccc(F)c(-c3n[nH]c4ncccc34)n2)CC[C@H]1N"
assay_result = "> 5.55"

[[record]]
compound = "NCc1cccc(-c2ccc(C(F)(F)F)c(-c3n[nH]c4ncccc34)n2)c1"
assay_result = "< 5.90"

[[record]]
compound = "CCOC[C@H]1CN(c2cccc(-c3n[nH]c4ncccc34)n2)CCN1"
assay_result = "< 5.90"

[[record]]
compound = "OCC1CCN(c2ccc(C(F)(F)F)c(-c3n[nH]c4ncccc34)n2)CC1"
assay_result = "< 5.90"

[[record]]
compound = "CC(C)(C)C1CN(c2ccc(F)c(-c3n[nH]c4ncccc34)n2)CCN1 (centres unmarked)"
assay_result = "< 5.90"

[[record]]
compound = "CCNC(=O)C1CN(c2ccc(C(F)(F)F)c(-c3n[nH]c4ncccc34)n2)CCN1 (centres unmarked)"
assay_result = "< 5.90"

[[record]]
compound = "FC(F)(F)c1ccc(N2CCN[C@@H](c3ccccc3)C2)nc1-c1n[nH]c2ncccc12"
assay_result = "> 5.55"

[[record]]
compound = "OC1([C@@H]2CN(c3nc(-c4n[nH]c5ncccc45)c(F)cc3F)CCN2)CC1"
assay_result = "< 5.90"

[[record]]
compound = "CC(C)C(C)(O)C1CN(c2ccc(F)c(-c3n[nH]c4ncccc34)n2)CCN1 (centres unmarked)"
assay_result = "< 5.90"

[[record]]
compound = "CS(=O)(=O)NCC1CCCN(c2ccc(F)c(-c3n[nH]c4ncccc34)n2)C1 (centres unmarked)"
assay_result = "< 5.90"

[[record]]
compound = "COC(C)(C)C1CN(c2cccc(-c3n[nH]c4ncccc34)n2)CCN1 (centres unmarked)"
assay_result = "< 5.90"

[[record]]
compound = "CC1(C)CC1(O)C1CN(c2ccc(F)c(-c3n[nH]c4ncccc34)n2)CCN1 (centres unmarked) [Compound 381]"
assay_result = "> 6.30"

